test system: isolated bronchial smooth muscle; assay: Activity on isolated bronchial smooth muscle (in vitro test), methacholine chloride as spasmogen (Anti-methacholine Chloride); type: cell-based, guinea pig; settings: relative to control E (trimetoquinol) = 1.0; ED50 ratio, smaller = more potent
Where a name gives a salt, the structure may show the parent alone.
property-measured: Anti-methacholine Chloride relative activity
API note: the answer field is a bare number with no unit suffix.

Use the examples below as a reference point.
compound	value
COc1ccc(CC(C)NCC(O)c2ccc(O)c(NC=O)c2)cc1 (single isomer, unassigned)	0.22
CC(C)NCC(O)c1ccc(O)c(N)c1 (stereo not shown)	143
COc1cc(C[C@@H]2NCCc3cc(O)c(O)cc32)cc(OC)c1OC [Known compound E, hydrochloride]	1.0
CC(Cc1ccc(O)cc1)NCC(O)c1ccc(O)c(NC=O)c1 (single isomer, unassigned)	0.52
CC(C)NCC(O)c1ccc(O)c(O)c1 (stereo not shown)	1.33

Query :: Entry CC(C)(C)NCC(O)c1ccc(O)c(CO)c1 (stereo not shown) : reported Anti-methacholine Chloride relative activity = ?
Result :: 4.57

Query :: Entry CC(CCc1ccc(O)cc1)NCC(O)c1ccc(O)c(NC=O)c1 (stereo not shown) : reported Anti-methacholine Chloride relative activity = ?
Result :: 0.42

----------
tested on: isolated bronchial smooth muscle; assay: Activity on isolated bronchial smooth muscle (in vitro test), methacholine chloride as spasmogen (Anti-methacholine Chloride); type: cell-based, guinea pig; conditions: relative to control E (trimetoquinol) = 1.0; ED50 ratio, smaller = more potent
property-measured: Anti-methacholine Chloride relative activity

Use the examples below as a reference point.
compound	measured-target	value
CNC(=O)Nc1cc(C(O)CNC(C)C)ccc1O (stereo not drawn)	isolated bronchial smooth muscle	> 4760
CC(=O)Nc1cc(C(O)CNC(C)C)ccc1O.Cl (stereo not drawn)	isolated bronchial smooth muscle	> 4760

Query :: Entry CCOC(=O)Nc1cc(C(O)CNC(C)C)ccc1O (stereo not drawn) : reported Anti-methacholine Chloride relative activity = ?
Result :: > 4760
